measured_on: Human C3 (human, UniProt P01024 23-1663)
Sequence (P01024 23-1663 limits assumed): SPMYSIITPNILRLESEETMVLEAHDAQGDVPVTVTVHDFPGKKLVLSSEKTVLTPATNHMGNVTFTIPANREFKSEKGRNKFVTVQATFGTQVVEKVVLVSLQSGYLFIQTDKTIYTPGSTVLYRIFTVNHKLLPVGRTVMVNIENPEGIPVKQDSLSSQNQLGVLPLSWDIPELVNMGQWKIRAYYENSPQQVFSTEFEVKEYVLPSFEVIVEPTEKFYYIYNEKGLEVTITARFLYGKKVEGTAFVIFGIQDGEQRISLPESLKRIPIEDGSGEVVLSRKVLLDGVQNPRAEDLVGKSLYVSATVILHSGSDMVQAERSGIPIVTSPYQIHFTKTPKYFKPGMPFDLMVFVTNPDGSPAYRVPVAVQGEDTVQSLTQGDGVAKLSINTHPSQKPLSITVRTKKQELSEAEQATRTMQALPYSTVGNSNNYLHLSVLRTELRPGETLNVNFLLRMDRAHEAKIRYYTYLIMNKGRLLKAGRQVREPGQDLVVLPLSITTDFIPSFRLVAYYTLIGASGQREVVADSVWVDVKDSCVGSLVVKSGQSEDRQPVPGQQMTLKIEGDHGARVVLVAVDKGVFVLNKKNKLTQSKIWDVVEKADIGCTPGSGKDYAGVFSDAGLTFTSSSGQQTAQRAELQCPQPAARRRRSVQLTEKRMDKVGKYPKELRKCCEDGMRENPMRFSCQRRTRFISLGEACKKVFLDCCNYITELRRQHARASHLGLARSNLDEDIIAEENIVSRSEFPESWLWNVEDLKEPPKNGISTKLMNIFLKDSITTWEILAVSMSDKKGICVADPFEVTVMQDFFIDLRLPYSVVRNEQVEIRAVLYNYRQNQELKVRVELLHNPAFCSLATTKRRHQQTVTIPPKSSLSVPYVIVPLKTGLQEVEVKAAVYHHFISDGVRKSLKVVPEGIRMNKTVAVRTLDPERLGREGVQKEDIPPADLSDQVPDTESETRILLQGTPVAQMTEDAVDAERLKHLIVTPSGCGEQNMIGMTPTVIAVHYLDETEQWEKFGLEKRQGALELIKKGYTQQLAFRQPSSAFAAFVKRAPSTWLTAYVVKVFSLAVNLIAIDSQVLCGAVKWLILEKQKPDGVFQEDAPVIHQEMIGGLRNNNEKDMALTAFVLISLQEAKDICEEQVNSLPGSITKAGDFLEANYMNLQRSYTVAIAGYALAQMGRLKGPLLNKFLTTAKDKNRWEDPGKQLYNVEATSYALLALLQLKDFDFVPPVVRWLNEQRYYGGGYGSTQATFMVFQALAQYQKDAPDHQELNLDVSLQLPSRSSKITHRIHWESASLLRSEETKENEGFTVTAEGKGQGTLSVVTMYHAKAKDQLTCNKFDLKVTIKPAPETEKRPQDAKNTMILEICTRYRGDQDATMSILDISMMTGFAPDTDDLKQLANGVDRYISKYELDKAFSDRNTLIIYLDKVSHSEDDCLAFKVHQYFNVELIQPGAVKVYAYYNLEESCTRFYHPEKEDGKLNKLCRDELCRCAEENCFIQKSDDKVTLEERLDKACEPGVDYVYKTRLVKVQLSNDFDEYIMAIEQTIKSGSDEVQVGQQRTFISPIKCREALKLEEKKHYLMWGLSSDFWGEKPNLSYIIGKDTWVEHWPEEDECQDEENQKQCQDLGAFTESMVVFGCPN
assay_details: cell-based or functional assay
Positions of bridges follow the written chain, without caps; N, C: chain ends.
Measured IC50[nM], inhibition of hemolysis values are reported for all entries that follow.

So what does the record say about IC50[nM], inhibition of hemolysis for Ac-ESSAYCIWQDWGEHRCT-NH2 (disulfide 6-16; SMILES CC[C@H](C)[C@@H]1NC(=O)[C@@H](NC(=O)[C@H](Cc2ccc(O)cc2)NC(=O)[C@H](C)NC(=O)[C@H](CO)NC(=O)[C@H](CO)NC(=O)[C@H](CCC(=O)O)NC(C)=O)CSSC[C@@H](C(=O)N[C@H](C(N)=O)[C@@H](C)O)NC(=O)[C@H](CCCNC(=N)N)NC(=O)[C@H](Cc2c[nH]cn2)NC(=O)[C@H](CCC(=O)O)NC(=O)CNC(=O)[C@H](Cc2c[nH]c3ccccc23)NC(=O)[C@H](CC(=O)O)NC(=O)[C@H](CCC(N)=O)NC(=O)[C@H](Cc2c[nH]c3ccccc23)NC1=O) [Compound 10] ?
< 100 nM

So what does the record say about IC50[nM], inhibition of hemolysis for Ac-ICIWQDWGAHRCT-NH2 (disulfide 2-12; SMILES CC[C@H](C)[C@H](NC(C)=O)C(=O)N[C@H]1CSSC[C@@H](C(=O)N[C@H](C(N)=O)[C@@H](C)O)NC(=O)[C@H](CCCNC(=N)N)NC(=O)[C@H](Cc2c[nH]cn2)NC(=O)[C@H](C)NC(=O)CNC(=O)[C@H](Cc2c[nH]c3ccccc23)NC(=O)[C@H](CC(=O)O)NC(=O)[C@H](CCC(N)=O)NC(=O)[C@H](Cc2c[nH]c3ccccc23)NC(=O)[C@H]([C@@H](C)CC)NC1=O) [Compound 1] ?
< 250 nM
